# key: entry, value: % double-positive cells vs WT
TARGET ENTITY: T1, mTfR-1 Q274A on Expi293 cells (mouse, UniProt Q62351 1-763)
T1 construct: whole, on cells
T1 sequence (Q62351 whole entry Q274A): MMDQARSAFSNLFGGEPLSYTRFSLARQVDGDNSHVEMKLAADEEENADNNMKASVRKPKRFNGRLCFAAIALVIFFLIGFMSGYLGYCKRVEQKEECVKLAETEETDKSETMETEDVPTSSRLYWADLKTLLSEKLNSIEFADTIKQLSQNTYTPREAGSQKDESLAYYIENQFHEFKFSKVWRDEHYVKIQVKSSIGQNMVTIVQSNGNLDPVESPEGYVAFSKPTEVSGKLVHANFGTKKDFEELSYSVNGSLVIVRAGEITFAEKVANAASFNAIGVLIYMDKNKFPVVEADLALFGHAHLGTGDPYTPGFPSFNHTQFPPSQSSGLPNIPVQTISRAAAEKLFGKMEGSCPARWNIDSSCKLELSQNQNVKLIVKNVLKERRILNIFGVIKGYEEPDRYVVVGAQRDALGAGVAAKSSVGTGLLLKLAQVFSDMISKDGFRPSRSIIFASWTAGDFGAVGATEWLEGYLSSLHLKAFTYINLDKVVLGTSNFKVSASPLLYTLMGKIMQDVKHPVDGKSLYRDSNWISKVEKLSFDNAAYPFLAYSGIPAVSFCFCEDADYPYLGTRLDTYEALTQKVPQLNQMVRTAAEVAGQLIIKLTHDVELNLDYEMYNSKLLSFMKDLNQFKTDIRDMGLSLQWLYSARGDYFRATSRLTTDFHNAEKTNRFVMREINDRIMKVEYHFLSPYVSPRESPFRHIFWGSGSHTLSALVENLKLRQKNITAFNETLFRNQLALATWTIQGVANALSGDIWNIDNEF
ASSAY SUMMARY: FACS, transfected Expi293 cells
The reply should contain only the number, in %.

Illustrative cases are given below, each with its answer.
8D3 antibody (anti-mouse TfR-1 control; 8D3-hFc formatted antibody) (antibody, V domains shown) VH: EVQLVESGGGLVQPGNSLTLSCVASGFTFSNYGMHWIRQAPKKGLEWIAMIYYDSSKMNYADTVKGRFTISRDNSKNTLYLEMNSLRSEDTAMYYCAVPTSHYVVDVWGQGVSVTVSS VL: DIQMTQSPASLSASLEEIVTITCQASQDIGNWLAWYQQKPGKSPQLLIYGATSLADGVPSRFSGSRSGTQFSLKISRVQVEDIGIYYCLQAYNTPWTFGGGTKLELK ... 87
Clone C variant 18 VNAR-hFc (Fc fusion, not shown: a dimerising Fc or GST, also called Clone C v18; Clone C var; 18) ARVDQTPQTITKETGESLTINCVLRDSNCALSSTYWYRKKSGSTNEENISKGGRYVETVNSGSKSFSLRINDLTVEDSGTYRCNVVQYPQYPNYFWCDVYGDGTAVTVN ... 229
Clone C variant 13 VNAR-hFc (Fc fusion, not shown: a dimerising Fc or GST, also called Clone C v13; Clone C var; 13) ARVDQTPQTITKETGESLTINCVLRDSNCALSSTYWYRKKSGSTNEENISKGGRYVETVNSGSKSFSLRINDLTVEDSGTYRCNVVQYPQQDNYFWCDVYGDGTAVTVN ... 84

Continue with the next binder.
Fill in: % double-positive cells vs WT of Clone C VNAR-hFc fusion (Fc fusion, not shown: a dimerising Fc or GST, bivalent VNAR-Fc; also called Clone C-hFc) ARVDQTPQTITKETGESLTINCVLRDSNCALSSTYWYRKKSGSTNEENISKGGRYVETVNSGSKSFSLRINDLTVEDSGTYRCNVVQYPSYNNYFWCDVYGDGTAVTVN is ___
182

The origin of these recorded values is patent US20210403591A1.
